- Assay name: in vivo
- Parameters: species or system mice
- Condition set: M-NSG, mouse, iv, 100 uCi, total radioactivity, % ID/g Kidney
Non-standard residues stand in square brackets, D forms with d. Residues, ends and D or L forms follow the SMILES beside them. *: point of attachment. DOTA = O=C(O)CN1CCN(CC(=O)O)CCN(CC(=O)*)CCN(CC(=O)O)CC1; PEG4 = NCCOCCOCCOCCOCCC(=O)O; Aib = CC(C)(N)C(=O)O; AEA = NCCOCC(=O)O
Observable: tissue uptake at 1 h (%ID/g)

Molecule | Observable | Reported
CC[C@H](C)[C@H](NC(=O)[C@@H](NC(=O)[C@H](CC(=O)O)NC(=O)[C@H](CC(N)=O)NC(=O)[C@H](CC(=O)O)NC(=O)CNC(=O)[C@H](CCCNC(=N)N)NC(=O)CCOCCOCCOCCOCCNC(=O)CN1CCN(CC(=O)O)CCN(CC(=O)O)CCN(CC(=O)O)CC1)C(C)C)C(=O)N[C@@H](CC(N)=O)C(=O)O [^68Ga-TM7, metal not drawn] ({DOTA-PEG4}-RGDNDVIN-OH) | tissue uptake at 1 h | 64.5
CC[C@H](C)[C@H](NC(=O)[C@@H](NC(=O)[C@H](CC(=O)O)NC(=O)[C@H](CC(N)=O)NC(=O)CCOCCOCCOCCOCCNC(=O)CN1CCN(CC(=O)O)CCN(CC(=O)O)CCN(CC(=O)O)CC1)C(C)C)C(=O)N[C@@H](CC(N)=O)C(=O)O [^68Ga-TM5, metal not drawn] ({DOTA-PEG4}-NDVIN-OH) | tissue uptake at 1 h | 7.4
CC[C@H](C)[C@H](NC(=O)[C@@H](NC(=O)[C@H](CC(=O)O)NC(=O)[C@H](CC(N)=O)NC(=O)COCCNC(=O)CN1CCN(CC(=O)O)CCN(CC(=O)O)CCN(CC(=O)O)CC1)C(C)C)C(=O)N[C@@H](CC(N)=O)C(=O)O [^68Ga-TM13, metal not drawn] ({DOTA-AEA}-NDVIN-OH) | tissue uptake at 1 h | 3.9
CC[C@H](C)[C@H](NC(=O)[C@@H](NC(=O)[C@H](CC(=O)O)NC(=O)[C@H](CC(N)=O)NC(=O)CN1CCN(CC(=O)O)CCN(CC(=O)O)CCN(CC(=O)O)CC1)C(C)C)C(=O)N[C@@H](CC(N)=O)C(=O)O [^68Ga-TM4, ^68Ga-DOTA-Asn-Asp-Val-Ile-Asn-OH, metal not drawn] ({DOTA}-NDVIN-OH) | tissue uptake at 1 h | 4.8
CC[C@H](C)[C@H](NC(=O)C(C)(C)NC(=O)[C@H](CC(=O)O)NC(=O)[C@H](CC(N)=O)NC(=O)CN1CCN(CC(=O)O)CCN(CC(=O)O)CCN(CC(=O)O)CC1)C(=O)N[C@@H](CC(N)=O)C(=O)O [^68Ga-TM11, metal not drawn] ({DOTA}-ND[Aib]IN-OH) | tissue uptake at 1 h | 4

* * *

- Assay name: in vivo
- Design: species or system mice
- Condition set: M-NSG, mouse, iv, 100 uCi, total radioactivity, % ID/g Brain
Non-standard residues stand in square brackets, D forms with d. Residues, ends and D or L forms follow the SMILES beside them. *: point of attachment. DOTA = O=C(O)CN1CCN(CC(=O)O)CCN(CC(=O)*)CCN(CC(=O)O)CC1; PEG4 = NCCOCCOCCOCCOCCC(=O)O; Aib = CC(C)(N)C(=O)O; AEA = NCCOCC(=O)O
Recorded tissue uptake at 1 h, one value per entry.

Molecule | tissue uptake at 1 h
CC[C@H](C)[C@H](NC(=O)[C@@H](NC(=O)[C@H](CC(=O)O)NC(=O)[C@H](CC(N)=O)NC(=O)COCCNC(=O)CN1CCN(CC(=O)O)CCN(CC(=O)O)CCN(CC(=O)O)CC1)C(C)C)C(=O)N[C@@H](CC(N)=O)C(=O)O [^68Ga-TM13, metal not drawn] ({DOTA-AEA}-NDVIN-OH) | 0.2 %ID/g
CC[C@H](C)[C@H](NC(=O)[C@@H](NC(=O)[C@H](CC(=O)O)NC(=O)[C@H](CC(N)=O)NC(=O)[C@H](CC(=O)O)NC(=O)CNC(=O)[C@H](CCCNC(=N)N)NC(=O)CCOCCOCCOCCOCCNC(=O)CN1CCN(CC(=O)O)CCN(CC(=O)O)CCN(CC(=O)O)CC1)C(C)C)C(=O)N[C@@H](CC(N)=O)C(=O)O [^68Ga-TM7, metal not drawn] ({DOTA-PEG4}-RGDNDVIN-OH) | 0.24 %ID/g
CC[C@H](C)[C@H](NC(=O)[C@@H](NC(=O)[C@H](CC(=O)O)NC(=O)[C@H](CC(N)=O)NC(=O)CN1CCN(CC(=O)O)CCN(CC(=O)O)CCN(CC(=O)O)CC1)C(C)C)C(=O)N[C@@H](CC(N)=O)C(=O)O [^68Ga-TM4, ^68Ga-DOTA-Asn-Asp-Val-Ile-Asn-OH, metal not drawn] ({DOTA}-NDVIN-OH) | 0.5 %ID/g
CC[C@H](C)[C@H](NC(=O)C(C)(C)NC(=O)[C@H](CC(=O)O)NC(=O)[C@H](CC(N)=O)NC(=O)CN1CCN(CC(=O)O)CCN(CC(=O)O)CCN(CC(=O)O)CC1)C(=O)N[C@@H](CC(N)=O)C(=O)O [^68Ga-TM11, metal not drawn] ({DOTA}-ND[Aib]IN-OH) | 0.21 %ID/g
CC[C@H](C)[C@H](NC(=O)[C@@H](NC(=O)[C@H](CC(=O)O)NC(=O)[C@H](CC(N)=O)NC(=O)CCOCCOCCOCCOCCNC(=O)CN1CCN(CC(=O)O)CCN(CC(=O)O)CCN(CC(=O)O)CC1)C(C)C)C(=O)N[C@@H](CC(N)=O)C(=O)O [^68Ga-TM5, metal not drawn] ({DOTA-PEG4}-NDVIN-OH) | 0.25 %ID/g
